- test details: Pharmacokinetics in SD rats
- Format: in vivo, Sprague–Dawley (SD) rats
- run conditions: Sprague-Dawley, rat, in vivo, iv, i.v. 1 mg/kg, read-out: CLZ (converted)
metric name: clearance (mL/min/kg)
Give bare numbers, in mL/min/kg.

Record summary for COC(=O)c1c(N)n(Cc2ccc(F)cc2)c2nc3ccccc3nc12 [SKLB-11A] : reported clearance = 90.7

====

- experimental system: SIRT3 (Homo sapiens)
- Construct: purchased Enzo Life Sciences BML-AK557-0001
- Sequence (Q9NTG7 whole entry): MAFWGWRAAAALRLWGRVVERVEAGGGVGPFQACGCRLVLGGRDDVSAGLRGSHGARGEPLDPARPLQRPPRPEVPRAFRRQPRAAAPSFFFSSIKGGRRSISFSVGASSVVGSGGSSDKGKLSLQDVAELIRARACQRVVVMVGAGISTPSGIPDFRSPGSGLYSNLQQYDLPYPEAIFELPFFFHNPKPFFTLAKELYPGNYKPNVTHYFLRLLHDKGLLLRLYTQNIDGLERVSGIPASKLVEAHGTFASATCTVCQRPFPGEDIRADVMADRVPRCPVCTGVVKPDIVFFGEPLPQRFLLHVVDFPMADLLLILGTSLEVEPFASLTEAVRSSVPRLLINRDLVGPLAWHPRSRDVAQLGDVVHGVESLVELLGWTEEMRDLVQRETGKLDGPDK
- test details: Fluor de Lys (FDL) fluorimetric SIRT3 deacetylase activity assay
- Type: biochemical
- run conditions: 0.5 h; 100 µM; FDL deacetylation assay; compared to the control group; mean ± SD; read-out: % effect @ 100 µM of SIRT3
Could you please report measured activity at 100 µM for the items listed next?
One number for each entry, in %.

These recorded examples may help you get a feel for the data.
# molecule, unit info, activity at 100 µM
measured = [
    ("CCCCNC(=O)c1c(N)n(Cc2ccc(F)cc2)c2nc3ccccc3nc12 [SKLB-11L]", "%", 124),
    ("CC(C)OC(=O)c1c(N)n(Cc2ccc(F)cc2)c2nc3ccccc3nc12 [SKLB-11C]", "%", 124),
    ("Nc1c(C(=O)Oc2ccccc2)c2nc3ccccc3nc2n1Cc1ccc(F)cc1 [SKLB-11E]", "%", 131),
]

Give me activity at 100 µM for each of these molecules, listed below.
1. NC(=O)c1c(N)n(Cc2ccc(F)cc2)c2nc3ccccc3nc12 [SKLB-11I]
2. CCCCCNC(=O)c1c(N)n(Cc2cccc(Cl)c2)c2nc3ccccc3nc12 [SKLB-11Q]
3. CC(C)(C)OC(=O)c1c(N)n(Cc2ccc(F)cc2)c2nc3ccccc3nc12 [SKLB-11D]

[135, 118, 148]

List activity at 100 µM for every entry below, keeping the order given.
1. CCNC(=O)c1c(N)n(Cc2ccc(F)cc2)c2nc3ccccc3nc12 [SKLB-11K]
2. Cc1ccc(Cn2c(N)c(C(=O)OC(C)(C)C)c3nc4ccccc4nc32)cc1 [SKLB-11G]
3. Nc1c(C(=O)O)c2nc3ccccc3nc2n1Cc1ccc(F)cc1
4. COc1cccc(-n2c(N)c(C#N)c3nc4ccccc4nc32)c1
5. CC(C)(C)OC(=O)c1c(N)n(Cc2ccccc2)c2nc3ccccc3nc12 [SKLB-11F]

1. 144
2. 107
3. 154
4. 103
5. 123

Give measured activity at 100 µM for every item shown.
1. CCCCCNC(=O)c1c(N)n(Cc2ccc(Br)cc2)c2nc3ccccc3nc12 [SKLB-11O]
2. COc1ccc(-n2c(N)c(C#N)c3nc4ccccc4nc32)cc1
3. CCCCCNC(=O)c1c(N)n(Cc2ccccc2)c2nc3ccccc3nc12 [SKLB-11N]
4. COC(=O)c1c(N)n(Cc2ccc(F)cc2)c2nc3ccccc3nc12 [SKLB-11A]
5. N#Cc1c(N)n(Cc2ccc(Br)cc2)c2nc3ccccc3nc12
6. Nc1c(C(=O)NC2CC2)c2nc3ccccc3nc2n1Cc1ccc(F)cc1 [SKLB-11M]

126
110
119
188
126
104

====

- test details: Pharmacokinetics in SD rats
- Type: in vivo, Sprague–Dawley (SD) rats
- run conditions: Sprague-Dawley, rat, in vivo, po, p.o. 10 mg/kg, read-out: T1/2z (converted)
metric name: half-life (min)
Give bare numbers, in min.

Please fill in: half-life reported for COC(=O)c1c(N)n(Cc2ccc(F)cc2)c2nc3ccccc3nc12 [SKLB-11A] = 326
